The measured values listed here are drawn from patent US20230365592A1.

- system tested: human PAH with the R408W mutation (Homo sapiens, UniProt P00439, R408W)
- Construct: expressed in transfected cells
- Sequence (P00439 whole entry R408W): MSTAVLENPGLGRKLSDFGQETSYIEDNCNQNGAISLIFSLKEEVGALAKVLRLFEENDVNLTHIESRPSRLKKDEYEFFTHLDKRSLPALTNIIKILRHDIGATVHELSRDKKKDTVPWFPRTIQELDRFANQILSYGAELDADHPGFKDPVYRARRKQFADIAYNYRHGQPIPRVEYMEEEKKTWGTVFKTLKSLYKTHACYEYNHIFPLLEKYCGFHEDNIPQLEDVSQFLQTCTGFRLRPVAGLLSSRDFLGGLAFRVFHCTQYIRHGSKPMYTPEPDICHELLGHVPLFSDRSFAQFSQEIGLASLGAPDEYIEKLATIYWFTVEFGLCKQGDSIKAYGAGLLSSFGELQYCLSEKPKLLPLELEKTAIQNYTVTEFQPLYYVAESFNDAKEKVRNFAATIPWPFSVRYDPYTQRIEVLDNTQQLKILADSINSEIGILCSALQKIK
- experiment summary: Cell Based Phenylalanine Flux Assay;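 note: after compound treatment, cells received sepiapterin plus isotope-labelled Phenylalanine for 4 hours, then labelled Tyrosine in the medium was quantified, 10-point 2-fold dilution series run in duplicate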
- run parameters: A375 cells expressing R408W PAH; 24 hrs with compound, then 20 µM sepiapterin and 800 µM 13C9,15N-Phenylalanine for 4 hours; 13C-Tyrosine by LC-MS; average where tested multiple times; read-out: AC50

[
  {
    "compound": "O=C(c1ocnc1CC(F)F)N1CCc2[nH]cnc2C1c1cc2ccccn2n1 (centres unmarked)",
    "AC50": "1 to 5 µM"
  },
  {
    "compound": "Cn1cncc1-c1nnc(C(=O)N2CCc3[nH]cnc3C2c2cc3c(F)cccn3n2)o1 (centres unmarked)",
    "AC50": "1 to 5 µM"
  },
  {
    "compound": "O=C(CCc1nccs1)N1CCc2[nH]cnc2C1c1cc2ccccn2n1 (centres unmarked)",
    "AC50": "1 to 5 µM"
  },
  {
    "compound": "COCc1ccc2c(C(=O)N3CCc4[nH]cnc4C3c3cc4cccc(C(F)F)n4n3)cnn2c1 (centres unmarked)",
    "AC50": "1 to 5 µM"
  },
  {
    "compound": "O=C(c1nnc(-c2ccccn2)o1)N1CCc2[nH]cnc2C1c1cc2cc(C(F)(F)F)ccn2n1 (centres unmarked)",
    "AC50": "1 to 5 µM"
  },
  {
    "compound": "CC(C)(C)c1nnc(N2CCc3[nH]cnc3C2c2cc3c(F)cccn3n2)o1 (centres unmarked)",
    "AC50": "> 5 µM"
  },
  {
    "compound": "c1cc(C2CC2)c2cc(C3c4nc[nH]c4CCN3c3nnc(-c4ccncn4)o3)nn2c1 (centres unmarked)",
    "AC50": "> 5 µM"
  },
  {
    "compound": "Cc1nnc(C(=O)N2CCc3[nH]cnc3C2c2cc3cc(F)ccn3n2)o1 (centres unmarked)",
    "AC50": "1 to 5 µM"
  },
  {
    "compound": "FC(F)(F)c1cccc2cc(C3c4nc[nH]c4CCN3c3nnc(C4CCC4)o3)nn12 (centres unmarked)",
    "AC50": "1 to 5 µM"
  },
  {
    "compound": "O=C(c1nnc(-c2cnn(C(F)(F)F)c2)o1)N1CCc2[nH]cnc2C1c1cc2cccc(F)n2n1 (centres unmarked)",
    "AC50": "1 to 5 µM"
  },
  {
    "compound": "FC(F)c1cccn2nc(C3c4nc[nH]c4CCN3c3nnc(-c4cccnc4)o3)cc12 (centres unmarked)",
    "AC50": "1 to 5 µM"
  },
  {
    "compound": "Cc1ccn2nc(C3c4nc[nH]c4CCN3C(=O)c3nnc(-c4ccn(C)n4)o3)cc2c1 (centres unmarked)",
    "AC50": "> 5 µM"
  },
  {
    "compound": "Cn1cc(-c2nnc(N3CCc4[nH]cnc4[C@H]3c3cc4c(F)cccn4n3)o2)cn1 (single isomer, unassigned)",
    "AC50": "1 to 5 µM"
  },
  {
    "compound": "CC(C)(C)c1nnc(N2CCc3[nH]cnc3C2c2cc3cccc(C(F)F)n3n2)o1 (centres unmarked)",
    "AC50": "> 5 µM"
  },
  {
    "compound": "Cc1nnc(C(=O)N2CCc3[nH]cnc3C2c2cc3c(F)cccn3n2)s1 (centres unmarked)",
    "AC50": "1 to 5 µM"
  },
  {
    "compound": "O=C(c1oc(-c2ccccn2)nc1C1CC1)N1CCCc2[nH]cnc2[C@H]1c1cc2ccccn2n1 (single isomer, unassigned)",
    "AC50": "1 to 5 µM"
  },
  {
    "compound": "O=C(c1cnco1)N1CCc2[nH]cnc2C1c1cc2cc(F)ccn2n1 (centres unmarked)",
    "AC50": "1 to 5 µM"
  },
  {
    "compound": "CC(C)c1nnc(N2CCc3[nH]cnc3C2c2cc3c(C(C)C)cccn3n2)o1 (centres unmarked)",
    "AC50": "> 5 µM"
  },
  {
    "compound": "O=C(c1cnn(CC(F)(F)F)c1Cl)N1CCc2[nH]cnc2C1c1cc2ccccn2n1 (centres unmarked)",
    "AC50": "1 to 5 µM"
  },
  {
    "compound": "Fc1cccc2cc(C3c4nc[nH]c4CCN3c3nnc(-c4ccccn4)o3)nn12 (centres unmarked)",
    "AC50": "1 to 5 µM"
  },
  {
    "compound": "Clc1cccc2cc(C3c4nc[nH]c4CCN3c3nnc(C4CC4)o3)nn12 (centres unmarked)",
    "AC50": "1 to 5 µM"
  },
  {
    "compound": "Cn1nc(N)cc1C(=O)N1CCc2[nH]cnc2C1c1cc2ccccn2n1 (centres unmarked)",
    "AC50": "> 5 µM"
  },
  {
    "compound": "Cc1cccc2cc(C3c4nc[nH]c4CCN3c3nnc(C(C)(C)C)o3)nn12 (centres unmarked)",
    "AC50": "1 to 5 µM"
  },
  {
    "compound": "O=C(c1ccn[nH]1)N1CCc2[nH]cnc2C1c1cc2ccccn2n1 (centres unmarked)",
    "AC50": "> 5 µM"
  },
  {
    "compound": "Cn1ccc(-c2nnc(C(=O)N3CCc4[nH]cnc4C3c3cc4cc(C(F)(F)F)ccn4n3)o2)n1 (centres unmarked)",
    "AC50": "1 to 5 µM"
  },
  {
    "compound": "CC1(c2nnc(N3CCc4[nH]cnc4C3c3cc4c(C(F)(F)F)cccn4n3)o2)CC1 (centres unmarked)",
    "AC50": "1 to 5 µM"
  },
  {
    "compound": "Cc1cccn2nc(C3c4nc[nH]c4CCN3c3nnc(-c4ccncn4)o3)cc12 (centres unmarked)",
    "AC50": "1 to 5 µM"
  },
  {
    "compound": "Cc1ccc2c(C(=O)N3CCc4[nH]cnc4C3c3cc4cccc(C(F)(F)F)n4n3)cnn2c1 (centres unmarked)",
    "AC50": "1 to 5 µM"
  },
  {
    "compound": "Cn1cc(-c2nnc(C(=O)N3CCc4[nH]cnc4C3c3nn4ccccc4c3Br)o2)cn1 (single isomer, unassigned)",
    "AC50": "1 to 5 µM"
  },
  {
    "compound": "Cc1nnc(C(=O)N2CCc3[nH]cnc3C2c2cc3c(F)cccn3n2)o1 (centres unmarked)",
    "AC50": "> 5 µM"
  },
  {
    "compound": "Cn1cc(-c2nnc(N3CCc4[nH]cnc4C3c3cc4c(C(F)F)cccn4n3)o2)cn1 (centres unmarked)",
    "AC50": "> 5 µM"
  },
  {
    "compound": "Clc1cccc2cc(C3c4nc[nH]c4CCN3c3nnc(C4CCC4)o3)nn12 (centres unmarked)",
    "AC50": "1 to 5 µM"
  },
  {
    "compound": "Cn1ncnc1C(=O)N1CCc2[nH]cnc2C1c1cc2ccccn2n1 (centres unmarked)",
    "AC50": "1 to 5 µM"
  },
  {
    "compound": "Cc1ccn2nc(C3c4nc[nH]c4CCN3C(=O)c3nnc(-c4cnn(C)c4)o3)cc2c1 (centres unmarked)",
    "AC50": "> 5 µM"
  },
  {
    "compound": "Cc1nc(C(=O)N2CCc3[nH]cnc3C2c2cc3c(F)cccn3n2)n(C)n1 (centres unmarked)",
    "AC50": "1 to 5 µM"
  },
  {
    "compound": "O=C(c1nnc(-c2ncccn2)o1)N1CCc2[nH]cnc2C1c1cc2cccc(C(F)(F)F)n2n1 (centres unmarked)",
    "AC50": "1 to 5 µM"
  },
  {
    "compound": "Cc1cccn2nc(C3c4nc[nH]c4CCN3C(=O)c3cnc(C(C)(C)O)o3)cc12 (centres unmarked)",
    "AC50": "1 to 5 µM"
  },
  {
    "compound": "Cc1n[nH]cc1-c1nnc(C(=O)N2CCc3[nH]cnc3C2c2cc3c(F)cccn3n2)o1 (centres unmarked)",
    "AC50": "1 to 5 µM"
  }
]
